Every entry's value here was drawn from PubChem BioAssay (NCI).

# System: NCI-H23 lung
# protocol-notes: NCI-60 one-dose screen, 48 h
# condition-description: 10 µM unless noted
Compounds without any hit were thinned out: in the full panel of roughly 83,000, 20% have a hit. Calls of active or inactive are those of the source. How the source made its calls: active means growth percent below 10; inactive means the rest.
Your answer must be one of the following: active, inactive

These recorded examples may help you get a feel for the data.
{"compound": "COc1ccc2[nH]cc(/C=N/Nc3nc4ccccc4s3)c2c1", "experimental-target": "NCI-H23 lung", "group": "inactive"}
{"compound": "O=C(CCn1cc[n+](CC(=O)c2ccc(-c3ccccc3)cc2)c1)Nc1cccc2cccnc12", "experimental-target": "NCI-H23 lung", "group": "inactive"}
{"compound": "O=S(=O)(NCCCNc1nccc(-c2[nH]c(-c3ccccc3)nc2-c2ccc(Cl)c(O)c2)n1)c1cccc(F)c1", "experimental-target": "NCI-H23 lung", "group": "inactive"}
{"compound": "CC(C)(O)c1cncc(-c2ccc3ncnc(NCc4ccccc4)c3c2)c1", "experimental-target": "NCI-H23 lung", "group": "inactive"}
{"compound": "Cn1ccnc1C(=O)/C=C/c1ccc(CNC(=O)c2c(F)c(F)c(F)c(F)c2F)cc1", "experimental-target": "NCI-H23 lung", "group": "inactive"}

Prompt line: Call for entry "N#Cc1cnc2ccc(-c3cnc(N)nc3)cc2c1N1CCc2cc(F)c(Cl)cc21" :
Response line: active

Prompt line: Call for entry "COc1ccc([C@@H]2c3[nH]c4ccccc4c3C[C@H]3C(=O)N(C4CCN(CC5CCCCC5)CC4)CC(=O)N23)c(OC)c1" :
Response line: inactive

Prompt line: Call for entry CCOC(=O)C1=NNC(c2ccc(Cl)cc2)C1C(=O)N1C(=S)NC(=O)C1CC(C)C (centres undefined) :
Response line: inactive

Prompt line: Call for entry "COc1ccc(/C=C/C(=O)c2cc(S(N)(=O)=O)c(OC)cc2OC)cc1" :
Response line: inactive

---

# Tested on: CCRF-CEM leukemia
# protocol-notes: NCI-60 one-dose screen, 48 h (100 = growth as untreated, 0 = no growth, -100 = all killed)
# condition-description: 10 µM unless noted
About 83,000 compounds went through this panel and 20% of them were active in at least one assay; those are over-represented in the sample as a whole.
Binarize growth at 40%; below is rule met, at or above is rule not met.

These recorded examples may help you get a feel for the data.
{"compound": "CCC(NC(c1cc2cccc3ccc4cccc1c4c32)c1nnnn1C(C)(C)C)C1CCCCC1 (centres undefined)", "group": "rule not met"}
{"compound": "COc1cc(-c2nc(-c3ccccc3)[nH]c2-c2ccnc(NCCCNS(=O)(=O)c3cccc(F)c3)n2)ccc1Cl", "group": "rule met"}

Prompt line: In plain terms, does "O=C(Nc1nc2ccc([N+](=O)[O-])cc2s1)Nc1ccccc1Br" come in under 40% for growth?
Response line: rule met

Prompt line: In plain terms, does "CC(C)(C)n1cc(-c2ccnc(NCCCNS(=O)(=O)c3cccc(F)c3)n2)c(-c2ccc(Cl)c(O)c2)n1" come in under 40% for growth?
Response line: rule not met

Prompt line: In plain terms, does "O=S(=O)(Nc1ccc2c(c1)OCO2)c1ccc(-c2cnc(C3CC3)o2)cc1" come in under 40% for growth?
Response line: rule met

---

# Tested on: HCC-2998 colon
# protocol-notes: NCI-60 one-dose screen, 48 h
# condition-description: 10 µM unless noted
About 83,000 compounds went through this panel and 20% of them were active in at least one assay; those are over-represented in the sample as a whole. Activity calls are given as the source filed them. Rule for the calls: active = growth percent below 10; inactive = the rest.
Your answer must be one of the following: active, inactive

These recorded examples may help you get a feel for the data.
{"compound": "Cc1cc2ncc(-c3cc4ccccc4c(N4CCN(C)CC4)n3)nc2cc1C", "group": "active"}
{"compound": "COc1cc(/C=N/NC(=O)c2cn(C3CC3)c3c(OC)c(N4CC5CCCNC5C4)c(F)cc3c2=O)ccc1O (centres undefined)", "group": "inactive"}
{"compound": "CC(C)(C)c1ccc(C(=O)Nc2nc3ccc(O)cc3s2)cc1", "group": "inactive"}
{"compound": "O=C(CSc1nc2ccccc2c(=O)n1-c1ccc(Cl)cc1)N/N=C/c1ccc(N2CCCCC2)cc1", "group": "inactive"}

Prompt line: Call for entry "COc1ccc2c(c1)c(CC(=O)[Se]CCC#N)c(C)n2C(=O)c1ccc(Cl)cc1" :
Response line: inactive

Prompt line: Call for entry "COc1ccc(-c2cc(-c3ccc(Cl)cc3)c(C#N)c(=O)n2Cc2ccc(C(=O)O)cc2)cc1" :
Response line: inactive

Prompt line: Call for entry "C=CC(=O)N1CC=C(c2cc3c(N[C@H](C)c4ccccc4)ncnc3[nH]2)CC1" :
Response line: inactive

Prompt line: Call for entry "CCNC(=O)Oc1ccc(/C(=C(/C)c2ccccc2)c2ccc(OCCN3CCCCCC3)cc2)cc1" :
Response line: inactive

Prompt line: Call for entry "O=C(CSc1nnc(-c2ccc3nc(-c4ccccc4)[nH]c3c2)o1)Nc1ccc(C(=O)/C=C/c2ccccc2)cc1" :
Response line: inactive

Prompt line: Call for entry "CCCCCc1ccc(S(=O)(=O)Nc2cccc(-c3csc(NC(=O)CCCCCN4CCN(C)CC4)n3)c2)cc1" :
Response line: active

Prompt line: Call for entry "COc1cc(-c2nnc(SCc3ccc(O)c4ncccc34)n2-c2ccccc2)cc(OC)c1OC" :
Response line: inactive

Prompt line: Call for entry COc1ccc(/C=N/NC2=NC3C(S2)N(C)C(=O)N3C)cc1 (centres undefined) :
Response line: inactive

Prompt line: Call for entry "COCCNc1ccc2ncc(C#Cc3cncc(C(=O)Nc4ccc(CN5CCN(C)CC5)c(C(F)(F)F)c4)c3)n2n1" :
Response line: active

Prompt line: Call for entry CCO/C=N/C1=C(C#N)C(c2ccc(OC)cc2)c2sc3c(C)cccc3c2O1 (centres undefined) :
Response line: inactive

Prompt line: Call for entry "C#Cc1nc(C(C)=O)cs1" :
Response line: inactive

Prompt line: Call for entry "COc1cc(OC)c(S(N)(=O)=O)cc1C(=O)/C=C/c1ccc(Cl)cc1" :
Response line: active

Prompt line: Call for entry "C#CCC#CCN1CCC[C@H]1C(=O)NCC(=O)OC" :
Response line: inactive

Prompt line: Call for entry "CCCCCc1ccc(S(=O)(=O)Nc2cccc(-c3csc(NC(=O)CN4CCN(CCO)CC4)n3)c2)cc1" :
Response line: inactive

Prompt line: Call for entry "CNC(=O)c1cc(-n2ccc3cc(NC(=O)Nc4ccc(N5CCOCC5)c(C(F)(F)F)c4)ccc32)ccn1" :
Response line: inactive

---

Catalogue of growth readings, one per entry.
# Test system: UO-31 renal
# protocol-notes: NCI-60 one-dose screen, 48 h (100 = growth as untreated, 0 = no growth, -100 = all killed)
# condition-description: 10 µM unless noted
Compounds without any hit were thinned out: in the full panel of roughly 83,000, 20% have a hit.
Quick note: give the figure in %, leave out the unit.

Prompt line: Specify reported growth for the molecule shown: "COc1ccc(-c2nc(C(Cl)Cl)nc3cc(-c4ccccc4)nn23)cc1"
Response line: 25.7

Prompt line: Specify reported growth for the molecule shown: "O=C(Nc1nonc1-c1ccccc1)c1ccc(C(F)(F)F)cc1"
Response line: 91.4

Prompt line: Specify reported growth for the molecule shown: "Cn1cc(-c2nnc(N)nc2-c2c[nH]c3ccc(F)cc23)c2cc(F)ccc21"
Response line: 57.1

Prompt line: Specify reported growth for the molecule shown: "COc1cccc(O)c1/C=C(/C)c1ccc2c(OC)cccc2[o+]1"
Response line: 79.7

---

# Tested on: SK-OV-3 ovarian
# protocol-notes: NCI-60 one-dose screen, 48 h
# condition-description: 10 µM unless noted
# Experimental: Growth inhibition of the SK-OV-3 human tumor cell line is measured as a screen for anti-cancer activity. Cells are grown in 96 well plates and exposed to the test compound for 48 hours. Compounds are tested at a single concentration, which is 10^-5 M for most compounds. The reported endpoint is percent growth (GI% or GIPRCNT), where numbers from 0 - 100% represent growth inhibition, and numbers from -100% - 0 represent cell death. For example, a value of 40 represents 60% growth inhibition. […]
Compounds without any hit were thinned out: in the full panel of roughly 83,000, 20% have a hit. Calls of active or inactive are those of the source. The calls were made as follows: active = growth percent below 10; inactive = the rest.
Your answer must be one of the following: TRUE for active, FALSE for inactive

These recorded examples may help you get a feel for the data.
{"molecule": "Cc1nc(-c2ccccc2O)ccc1C(=O)N=Nc1c(O)[nH]c2ccc(Br)cc12", "experimental-target": "SK-OV-3 ovarian", "group": "FALSE"}
{"molecule": "C[C@@H]1C[C@H]2C(=O)O[C@@H](C)C(NC(=O)[C@H](Cc3cc(F)cc(F)c3)NC(=O)Nc3ccc(Cl)cc3F)C(=O)N3CCC[C@H]3C(=O)N3CCCC[C@H]3C(=O)N[C@@H](CO)C(=O)N2C1 (some centres undefined)", "experimental-target": "SK-OV-3 ovarian", "group": "FALSE"}
{"molecule": "Cc1c(F)cc(C(N)=O)cc1NCC(=O)Nc1ccc([N+](=O)[O-])cc1", "experimental-target": "SK-OV-3 ovarian", "group": "FALSE"}

Prompt line: Call for entry "O=C(NNc1nc2cc(F)ccc2n2c(CO)ccc12)c1cnccn1" :
Response line: TRUE
